Cited source: ChEMBL document CHEMBL5325414

assayInfo: Ratio of drug concentration in hippocampus to plasma of Sprague-Dawley rat at 15 mg/kg, IG measured after 0.083 hrs
Format: ADME, organism-based
measurementParameters: po
reportedEndpoint: Kp at 0.083 h
One number for each entry.

Problem: May I ask what Kp at 0.083 h has been recorded for "O=c1ccoc(/C=C/c2ccc(O)c(O)c2)c1O" ?
Solution: 0.07

----------
assayInfo: Drug concentration in plasma of Sprague-Dawley rat at 15 mg/kg, IG measured after 1 hrs
Type: ADME, organism-based
measurementParameters: po
reportedEndpoint: concentration at 1 h (ng/mL)
Answers are plain numbers, in ng/mL.

Problem: Field request: concentration at 1 h | item: "O=c1ccoc(/C=C/c2ccc(O)c(O)c2)c1O"
Solution: 1.77
